Measured values drawn from ChEMBL document CHEMBL1144250 for this set.

target_under_test: Glycogen synthase kinase-3 (Homo sapiens, UniProt P49840+P49841)
assay_text: Inhibitory concentration against Glycogen synthase kinase-3
Assay type: protein assay
measurement_label: Log IC50

Cc1c(-c2ccc(Cl)cc2)[nH]c2nccnc12 -5.77
Oc1ccc(-c2[nH]c3nccnc3c2CC2CC2)cc1 -5.52
Fc1ccc(-c2cc3[nH]ccnc-3n2)cc1 -5.72
COc1ccc(-c2[nH]c3nccnc3c2CC2CCCCC2)cc1 -5.17
Cc1c(-c2ccc(OS(=O)(=O)N(C)C)cc2)[nH]c2nccnc12 -6.3
C=CCc1c(-c2ccc(OC)cc2)[nH]c2nccnc12 -6.22
Oc1ccc(-c2cc3[nH]ccnc-3n2)cc1 -5.92
COc1ccc(-c2[nH]c3nccnc3c2C(C)C)cc1 -6.3
CCCCCCCc1c(-c2ccc(OC)cc2)[nH]c2nccnc12 -5
Clc1ccc(-c2[nH]c3nccnc3c2CC2CCCCC2)cc1 -5.1
Clc1ccc(-c2[nH]c3nccnc3c2Cc2ccccc2)cc1 -5.17
FC(F)(F)c1ccc(-c2cc3[nH]ccnc-3n2)cc1 -5.14
COc1cc(-c2cc3[nH]ccnc-3n2)cc(OC)c1OC -4.7
Cc1ccc(-c2cc3[nH]ccnc-3n2)cc1 -5.59
COc1ccc(-c2[nH]c3nccnc3c2C)cc1 -6.34
Brc1ccc(-c2cc3[nH]ccnc-3n2)cc1 -5.22
CC(C)c1c(-c2ccc(Cl)cc2)[nH]c2nccnc12 -6.12
COc1ccc(-c2cc3[nH]ccnc-3n2)cc1 -5.96
COc1cc(OC)cc(-c2cc3[nH]ccnc-3n2)c1 -4.22
COc1ccc(-c2[nH]c3nccnc3c2CCCCl)cc1 -5.6
CCCCc1c(-c2ccc(Cl)cc2)[nH]c2nccnc12 -5.23
